Data origin, for the record: PubChem BioAssay AID2060489

Quick reference: viability, T/C of the listed items.
- System: 922993-354-T-J3-PDC complex spheroids, viability;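 note: spheroids exposed to compounds for seven days; 100% = DMSO vehicle control viability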
- test name: Anticancer human tumor 922993-354-T-J3-PDC patient-derived endometrial carcinoma cell line growth inhibition [GQUAD]
- conditions: second compound 0.316 µM; first compound 0.316 µM; active compounds read low
Write it as a number; the unit % goes unstated.

As a guide, the following entries are already answered.
compound	parameter measured	experimental value
C=CCn1c(=O)c2cnc(Nc3ccc(N4CCN(C)CC4)cc3)nc2n1-c1cccc(C(C)(C)O)n1 + Cc1cnc(CNC(=O)c2c(=O)c3ccc(N4CCCN(C)CC4)nc3n3c2sc2ccccc23)cn1	viability, T/C	32.1
O=C(c1cc(Cc2n[nH]c(=O)c3ccccc23)ccc1F)N1CCN(C(=O)C2CC2)CC1 + Cc1cnc(CNC(=O)c2c(=O)c3ccc(N4CCCN(C)CC4)nc3n3c2sc2ccccc23)cn1	viability, T/C	39.4

Please examine the following record next.
May I ask what viability, T/C has been recorded for COc1cccc2c1C(=O)c1c(O)c3c(c(O)c1C2=O)CC(O)(C(=O)CO)CC3OC1CC(N)C(O)C(C)O1 (stereo not drawn) + Cc1cnc(CNC(=O)c2c(=O)c3ccc(N4CCCN(C)CC4)nc3n3c2sc2ccccc23)cn1 ?
42.1
